biological target: GDP-bound KRAS wild-type protein (Homo sapiens); assay: Binding to KRAS by surface plasmon resonance (SPR), dissociation constant KD; conditions: 1:1 binding model
Sequence (P01116 1-188 isoform P01116-2): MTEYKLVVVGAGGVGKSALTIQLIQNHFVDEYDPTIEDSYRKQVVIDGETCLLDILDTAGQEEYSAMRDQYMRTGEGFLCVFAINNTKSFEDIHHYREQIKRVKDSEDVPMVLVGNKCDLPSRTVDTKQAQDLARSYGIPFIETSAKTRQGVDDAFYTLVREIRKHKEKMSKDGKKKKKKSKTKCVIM
pKd: −log10 of the molar value.
Classification field: enter Fulfilled for pKd values not below 9, Not fulfilled for values below it.

Take a look at these entries with their results.
- CCO[C@@H]1C[C@H]2C(=O)NC3(CC(C)(C)C3)C(=O)N(C)[C@@H](C3CCCC3)C(=O)N(C)[C@H](C(=O)N(C)C)CC(=O)N(C)[C@@H]([C@@H](C)OC)C(=O)N[C@@H]([C@@H](C)CC)C(=O)N(C)CC(=O)N(C)[C@H]3C/C=C\CCN(C3=O)[C@@H](Cc3ccc(C)cc3)C(=O)N(C)CC(=O)N[C@@H](CCc3ccc(C(F)(F)F)c(OC)c3)C(=O)N2C1: Fulfilled
- CCCO[C@H](C)[C@@H]1NC(=O)[C@H](COCC)N(C)C(=O)C[C@@H](C(=O)N(C)CC)N(C)C(=O)[C@H](C2CCCC2)N(C)C(=O)C2(CC(C)(C)C2)NC(=O)[C@@H]2C[C@H](C)CN2C(=O)[C@H](CCc2ccc(C(F)(F)F)c(OC)c2)NC(=O)CN(C)C(=O)[C@H](Cc2ccc(C)cc2)N2CC/C=C\C[C@@H](C2=O)N(C)C(=O)CN(C)C1=O: Fulfilled

Field: next molecule
stdin: Dear colleague, could you confirm whether CCO[C@@H]1C[C@H]2C(=O)NC3(CC(C)(C)C3)C(=O)N(C)[C@@H](C3CCCC3)C(=O)N(C)[C@H](C(=O)N(C)CC)CC(=O)N(C)[C@@H](CC(C)C)C(=O)N[C@@H]([C@@H](C)CC)C(=O)N(C)CC(=O)N(C)[C@H]3C/C=C\CCN(C3=O)[C@@H](Cc3ccc(C(F)F)cc3)C(=O)N(C)CC(=O)N[C@@H](CCc3ccc(CC)c(F)c3)C(=O)N2C1 has pKd at or above 9?
stdout: Not fulfilled
